Cytochrome P450 2C9 (Homo sapiens, UniProt P11712) measurements of AC50, listed per entry.
Sequence (P11712 whole entry): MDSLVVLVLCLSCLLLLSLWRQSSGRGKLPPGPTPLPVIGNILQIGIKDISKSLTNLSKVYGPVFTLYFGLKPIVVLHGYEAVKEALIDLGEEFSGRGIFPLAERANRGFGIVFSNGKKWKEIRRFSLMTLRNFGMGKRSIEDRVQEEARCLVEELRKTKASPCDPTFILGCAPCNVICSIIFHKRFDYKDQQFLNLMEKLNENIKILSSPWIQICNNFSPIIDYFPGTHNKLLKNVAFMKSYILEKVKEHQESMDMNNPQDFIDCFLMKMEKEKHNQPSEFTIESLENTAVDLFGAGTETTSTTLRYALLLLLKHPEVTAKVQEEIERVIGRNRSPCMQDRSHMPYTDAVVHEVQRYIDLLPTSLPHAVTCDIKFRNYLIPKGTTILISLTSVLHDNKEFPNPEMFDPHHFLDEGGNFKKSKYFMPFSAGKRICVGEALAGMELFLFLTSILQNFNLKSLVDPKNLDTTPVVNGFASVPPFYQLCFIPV

Qu. Data request, read-out AC50, for CCCCCCNC=C1C(=O)N(C)C(=O)N(C)C1=O
Ans. 14.1 µM (inconclusive)

Provide the reported AC50 of each entry below, same order.
1. CCc1ccc2c(c1)cc(CN(C(S)=Nc1cccc(C)c1)C1CC1)c1nnnn12
2. CC(C)OCCCN1C(=O)c2ccccc2C1C(=O)NC1CCCCC1 (centres undefined)
3. COc1ccc(N(CC(=O)N/N=C/c2cccs2)S(=O)(=O)c2ccc(OC)c(OC)c2)cc1
4. COc1ccc2c(c1)CN([C@H](C)[C@@H]1CC[C@@H]3[C@H]4CC[C@H]5C[C@@H](O)CC[C@@]5(C)[C@H]4CC[C@]31C)CO2
5. CCOC(=O)c1cc2c(=O)n3ccccc3nc2n(CCCOC)/c1=N\C(C)=O
6. CCOc1cc(/C=C2\N=C(C)OC2=O)cc(Br)c1OCC(=O)OC
7. COc1cccc(OCCCOc2ccccc2C(C)C)c1
8. CCn1c(SCC(=O)NC2CCCc3ccccc32)nnc1-c1cccs1 (centres undefined)

Ans.
["2.82 µM (inconclusive)", "7.08 µM (inconclusive)", "4.47 µM (inconclusive)", "7.94 µM (inconclusive)", "20 µM (inconclusive)", "25.1 µM (inconclusive)", "25.1 µM (inconclusive)", "4.47 µM (inconclusive)"]

###

# tested system: Apoptotic protease-activating factor 1 (Homo sapiens, UniProt O14727)
# Sequence (O14727 whole entry): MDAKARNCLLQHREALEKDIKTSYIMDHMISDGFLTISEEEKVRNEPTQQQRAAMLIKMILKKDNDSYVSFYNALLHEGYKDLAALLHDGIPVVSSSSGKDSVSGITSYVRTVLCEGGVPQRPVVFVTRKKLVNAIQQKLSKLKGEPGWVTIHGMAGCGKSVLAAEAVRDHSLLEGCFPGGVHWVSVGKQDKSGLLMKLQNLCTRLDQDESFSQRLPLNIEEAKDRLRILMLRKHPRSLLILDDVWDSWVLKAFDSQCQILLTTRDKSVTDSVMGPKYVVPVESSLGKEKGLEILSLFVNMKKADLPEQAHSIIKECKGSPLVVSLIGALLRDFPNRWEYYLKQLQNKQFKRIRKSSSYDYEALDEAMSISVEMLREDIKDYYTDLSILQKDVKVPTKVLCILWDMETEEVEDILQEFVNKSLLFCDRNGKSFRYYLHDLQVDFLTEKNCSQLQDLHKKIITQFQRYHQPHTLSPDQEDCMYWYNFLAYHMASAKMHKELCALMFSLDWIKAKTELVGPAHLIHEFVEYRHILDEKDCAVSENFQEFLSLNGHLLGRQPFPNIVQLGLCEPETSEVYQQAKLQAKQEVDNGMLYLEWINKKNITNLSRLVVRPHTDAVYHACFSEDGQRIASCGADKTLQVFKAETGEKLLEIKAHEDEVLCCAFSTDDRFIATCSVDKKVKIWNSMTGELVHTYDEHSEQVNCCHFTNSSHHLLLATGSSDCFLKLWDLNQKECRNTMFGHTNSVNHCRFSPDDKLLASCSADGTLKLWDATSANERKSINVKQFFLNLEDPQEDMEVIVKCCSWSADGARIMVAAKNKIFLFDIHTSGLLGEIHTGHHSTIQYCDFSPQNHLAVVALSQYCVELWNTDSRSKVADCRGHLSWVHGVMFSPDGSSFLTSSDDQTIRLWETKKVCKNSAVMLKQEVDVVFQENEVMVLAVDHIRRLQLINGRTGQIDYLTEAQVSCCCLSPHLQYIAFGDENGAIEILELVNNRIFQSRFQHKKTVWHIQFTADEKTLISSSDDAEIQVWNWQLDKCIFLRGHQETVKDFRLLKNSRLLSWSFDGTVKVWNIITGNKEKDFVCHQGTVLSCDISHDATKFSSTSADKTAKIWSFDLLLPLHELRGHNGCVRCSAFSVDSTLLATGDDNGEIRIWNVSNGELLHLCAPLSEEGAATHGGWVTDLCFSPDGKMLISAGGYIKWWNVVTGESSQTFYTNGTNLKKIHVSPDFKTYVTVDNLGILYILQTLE
# Assay type: functional
The source made the active and inactive calls.
Task for the reader: assign each of the following compounds its reported IC50.

See these solved cases before continuing.
Qu. Form entry - test system: Apoptotic protease-activating factor 1 (Homo sapiens, UniProt O14727); read-out: IC50; compound: CCCCNC(=O)c1c(N)n(CCCOC)c2nc3ccccc3nc12
Ans. 27.7 µM (active)

Qu. Further, for FC(F)(F)c1cc(CCN2CCNC[C@@H]2CC2CCCCC2)cc(C(F)(F)F)c1 ?
Ans. 62.5 µM (active)

# context switch: different compound, same IC50
Qu. API: value(readout= IC50, system= Apoptotic protease-activating factor 1 (Homo sapiens, UniProt O14727), query= Cc1ccc(S(=O)(=O)/N=C2\C=C(Nc3cccc(C(=O)O)c3)C(=O)c3ccccc32)cc1 )
Ans. 7.32 µM (active)

###

Consider the following compounds; for each one, report its AC50.
# tested system: UniProt:P33261
# Sequence (P33261 whole entry): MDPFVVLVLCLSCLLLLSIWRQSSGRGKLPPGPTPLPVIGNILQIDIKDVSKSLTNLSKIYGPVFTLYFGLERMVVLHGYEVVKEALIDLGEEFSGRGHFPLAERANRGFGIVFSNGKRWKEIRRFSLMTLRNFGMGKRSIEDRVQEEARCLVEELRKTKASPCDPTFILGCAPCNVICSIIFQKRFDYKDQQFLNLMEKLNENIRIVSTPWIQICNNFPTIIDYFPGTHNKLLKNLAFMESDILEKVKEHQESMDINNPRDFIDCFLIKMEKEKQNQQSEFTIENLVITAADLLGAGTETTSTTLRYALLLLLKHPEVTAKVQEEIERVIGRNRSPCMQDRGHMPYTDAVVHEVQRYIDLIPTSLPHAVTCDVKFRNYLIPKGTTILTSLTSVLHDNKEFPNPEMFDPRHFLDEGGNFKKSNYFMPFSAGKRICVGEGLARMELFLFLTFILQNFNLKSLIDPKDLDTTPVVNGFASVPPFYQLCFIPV
# assay details: Cytochrome panel assay with activity outcomes. Panel member name: p450-cyp2c19 Compounds with AC50 equal or less than 10 uM are considered active
# Assay type: functional
# run parameters: read-out: AC50

Qu. Reported AC50 for CCN(CC)c1ccc(NC(=O)c2cccnc2)c(C)c1 : what is it?
Ans. 39.8 µM (inconclusive)

Qu. Next compound up: COc1ccccc1-c1nc(NCc2cccs2)c2ccccc2n1
Ans. 20 µM (inconclusive)

Qu. Queued: O=C(Nc1ccccc1)OC[C@H](CN1CCCCC1)OC(=O)Nc1ccccc1
Ans. 5.01 µM (inconclusive)

We next turn to a different compound, shown below.
Qu. # get_value(readout='AC50', item= CCOC(=O)c1cc(-c2ccccc2)sc1NC(=S)Nc1cc(C)ccn1 )
Ans. 6.31 µM (inconclusive)

###

# tested system: Protein skinhead-1 (Caenorhabditis elegans, UniProt P34707)
# Sequence (P34707 whole entry): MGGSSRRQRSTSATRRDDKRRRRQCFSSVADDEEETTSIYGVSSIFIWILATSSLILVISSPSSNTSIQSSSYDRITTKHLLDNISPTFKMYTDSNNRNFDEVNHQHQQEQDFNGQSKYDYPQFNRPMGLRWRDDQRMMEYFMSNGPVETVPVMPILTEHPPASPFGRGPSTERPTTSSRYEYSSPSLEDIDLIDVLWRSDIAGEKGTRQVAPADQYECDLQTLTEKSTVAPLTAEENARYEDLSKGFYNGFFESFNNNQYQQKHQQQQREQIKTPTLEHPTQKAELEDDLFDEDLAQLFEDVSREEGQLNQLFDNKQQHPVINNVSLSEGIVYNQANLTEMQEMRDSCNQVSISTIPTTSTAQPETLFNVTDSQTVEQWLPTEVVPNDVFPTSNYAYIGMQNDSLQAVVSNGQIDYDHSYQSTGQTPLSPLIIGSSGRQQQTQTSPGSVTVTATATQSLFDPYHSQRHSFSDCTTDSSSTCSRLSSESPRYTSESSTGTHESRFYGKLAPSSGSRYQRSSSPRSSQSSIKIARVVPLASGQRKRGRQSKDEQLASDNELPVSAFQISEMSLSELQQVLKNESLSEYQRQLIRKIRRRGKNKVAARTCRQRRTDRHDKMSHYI
# Assay type: functional
The source made the active and inactive calls.
Result category, one only: active, inactive

Qu. What outcome does the record of this test show for Fc1ccc(CSc2nnc(-c3ccco3)o2)cc1 ?
Ans. active

Qu. Entry COc1ccc(OCCN(C)C(=O)c2cccc(S(=O)(=O)N(C)c3ccccc3)c2)cc1 please
Ans. inactive

Qu. // query: Clc1ccc(OCCSc2ncccn2)c(Br)c1
Ans. active

Note: attention shifts to another entry.
Qu. Check the results log: what was the call for CN(C)S(=O)(=O)NC(c1ccccc1)c1ccccc1 ?
Ans. inactive

###

# tested system: Streptokinase A (Streptococcus pyogenes serotype M1)
# Sequence (P10520 whole entry): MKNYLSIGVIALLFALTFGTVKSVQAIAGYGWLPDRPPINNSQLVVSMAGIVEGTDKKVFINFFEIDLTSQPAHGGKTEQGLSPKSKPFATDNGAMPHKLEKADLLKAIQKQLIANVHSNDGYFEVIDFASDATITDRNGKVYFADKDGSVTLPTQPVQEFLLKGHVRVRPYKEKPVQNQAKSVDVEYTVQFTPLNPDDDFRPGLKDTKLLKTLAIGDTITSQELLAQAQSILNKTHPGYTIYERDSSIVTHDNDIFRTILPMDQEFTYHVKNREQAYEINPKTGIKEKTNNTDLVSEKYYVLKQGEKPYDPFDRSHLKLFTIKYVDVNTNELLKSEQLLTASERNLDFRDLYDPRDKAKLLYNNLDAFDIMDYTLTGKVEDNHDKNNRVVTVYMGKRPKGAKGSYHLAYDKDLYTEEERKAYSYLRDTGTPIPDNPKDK
# assay details: viability-normalized secreted streptokinase activity reduction – plasminogen activation absorbance, OD405, dose response (AID 1914);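 further: secreted streptokinase activity via plasminogen activation per viability signal from cell pellet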
# Format: functional, Streptococcus pyogenes M1 GAS
Calls of active or inactive are those of the source.
property measured: EC50

Qu. Consider the compound Clc1ccc(-c2ccc(/C=N/Nc3cc(N4CCOCC4)nc(N4CCOCC4)n3)o2)cc1 and give its measured EC50.
Ans. > 150 µM (not active)

Qu. Also Cc1nn(C(=O)c2cccnc2)c(C)c1Sc1ccc(Br)cc1 ?
Ans. > 150 µM (not active)

Qu. Also check O=C(Nc1cc(Cl)ccc1-n1cncn1)c1ccc([N+](=O)[O-])o1
Ans. 56.7 µM (inconclusive)

Qu. Same thing, different compound: N#Cc1ccc(NC(=O)Nc2ccc(Cl)cc2)cc1
Ans. > 150 µM (not active)

Qu. Now consider COc1ccc2cc3c(N)nn(C(=O)C4CCC(C(C)(C)C)CC4)c3nc2c1 (configuration not stated) and answer again.
Ans. > 150 µM (not active)

Qu. What do we get for Cc1cc(/C=N/n2cnnc2)c(C)n1-c1ccc(OCc2ccc(Cl)cc2)cc1 ?
Ans. 12.9 µM (active)

For the next question, use this compound.
Qu. Which EC50 value is on record for CC(C)c1ccc2[nH]c3c(c2c1)CCC/C3=N\NC(=O)c1ccncc1 ?
Ans. > 150 µM (not active)

###

# tested system: Heat shock factor protein 1 (Mus musculus, UniProt P38532)
# Sequence (P38532 whole entry): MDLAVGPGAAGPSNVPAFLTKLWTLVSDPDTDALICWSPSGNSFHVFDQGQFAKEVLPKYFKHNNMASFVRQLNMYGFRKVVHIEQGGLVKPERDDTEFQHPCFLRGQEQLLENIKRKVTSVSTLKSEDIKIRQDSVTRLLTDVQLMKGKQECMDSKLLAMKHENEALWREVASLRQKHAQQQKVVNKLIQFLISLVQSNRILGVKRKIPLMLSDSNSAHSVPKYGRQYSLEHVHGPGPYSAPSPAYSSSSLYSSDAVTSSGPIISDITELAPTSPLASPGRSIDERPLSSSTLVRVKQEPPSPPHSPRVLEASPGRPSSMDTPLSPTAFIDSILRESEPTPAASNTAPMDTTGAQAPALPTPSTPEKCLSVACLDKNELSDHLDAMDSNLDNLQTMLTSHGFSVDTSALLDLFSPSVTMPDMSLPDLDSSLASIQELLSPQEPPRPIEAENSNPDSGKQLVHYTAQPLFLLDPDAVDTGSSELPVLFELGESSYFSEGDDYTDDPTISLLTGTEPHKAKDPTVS
# assay details: decrease of HSF1-responsive luciferase luminescence – cell-based, NIH3T3, dose retest, confirmation (AID 2382);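 further: NIH3T3 fibroblasts with HSF1-driven luciferase reporter stressed by proteasome inhibitor MG132; luminescence from HSF1-driven luciferase expression after 8 hours of MG132 stress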
# Assay type: functional
Calls of active or inactive are those of the source.
property measured: EC50

Qu. Find the recorded EC50 belonging to CCN(CC(=O)N1CCCC1)S(=O)(=O)c1ccc(F)cc1 and report it.
Ans. > 195 µM (not active)

Qu. Repeat with COc1ccc(N(C)C(=O)CN(C)S(=O)(=O)c2ccc3c(c2)c(=O)n(C)c(=O)n3C)c(OC)c1
Ans. 120 µM (active)

Qu. Follow-up entry: COc1ccccc1-c1nnc(SC2CCc3ccccc3NC2=O)s1 (stereo unspecified)
Ans. > 195 µM (not active)

# batch: return EC50 for each of the 7 compounds below
1. CCCCN1C(=O)C(CC(=O)NCC)S/C1=N/c1ccccc1 (stereo unspecified)
2. CCN(CC)S(=O)(=O)c1cccc(NC(=O)CCNC(=O)NC23CC4CC(CC(C4)C2)C3)c1
3. COc1ccc(CCNC(=O)CN(c2ccc(OC)c(OC)c2)S(C)(=O)=O)cc1OC
4. N#Cc1nc(-c2ccccc2Cl)oc1N1CCN(C(=O)c2ccco2)CC1
5. Cc1[nH]c2ccccc2c1C(C[N+](=O)[O-])c1cccs1 (stereo unspecified)
6. Cc1ccc(N2CC(C(=O)Nc3nc4ccc(S(C)(=O)=O)cc4s3)CC2=O)cc1 (stereo unspecified)
7. CC1CCN(c2ccc(-c3cccs3)nn2)CC1

Ans.
1. > 195 µM (not active)
2. > 195 µM (not active)
3. > 195 µM (not active)
4. > 195 µM (not active)
5. > 195 µM (not active)
6. > 195 µM (not active)
7. 2.78 µM (active)

Qu. What value of EC50 has been recorded for this entry: COc1ccc(CN(CCCN2CCOCC2)C(=O)Nc2cccc(Cl)c2)cc1OC
Ans. > 195 µM (not active)

###

# tested system: Cytochrome P450 2C9 (Homo sapiens, UniProt P11712)
property measured: AC50

Here are 4 compounds together with their reported answers.
Qu. Look up AC50: Cc1ccnn2cc3c(=O)n(C)c(=O)n(C)c3c12
Ans. 11.2 µM (inconclusive)

Qu. Further, for Cc1ccc(NC(=O)NNS(=O)(=O)c2ccc(Br)cc2)cc1 ?
Ans. 1 µM (inconclusive)

Qu. And CCOC(=O)c1cc(-c2ccccc2)sc1NC(=S)Nc1cc(C)ccn1 ?
Ans. 5.62 µM (inconclusive)

Qu. Next compound: COc1ccccc1CCn1c(=O)c(C)nc2cncnc21
Ans. 31.6 µM (inconclusive)

Now for another entry.
Qu. Can you share its AC50? I mean this compound: O=C(NCCCN1CCc2ccccc2C1)Nc1ccc(Cl)cc1
Ans. 14.1 µM (inconclusive)
